Below: a set of entries, each annotated with reported normalised viability.
- System: CAL-120
- procedureText: normalised viability (% of control), CellTiter-Blue; higher = more viable cells (about 100 = DMSO control)
- experimentalConditions: 100 nM; incubation time: 72 h
observedProperty: normalised viability (%)

>>> print(df.to_string())
                                   compound  assayedsystem      observedproperty  reading
0  O=C(Nc1ccncc1)C(=O)c1cn(Cc2ccc(Cl)cc2)c2ccccc12 [Indibulin]        CAL-120  normalised viability     36.5
1  N#Cc1ccc(COC[C@H]2O[C@@H](n3c(NCc4ccc(Cl)c(Cl)c4)nc4c(N)ncnc43)[C@H](O)[C@@H]2O)cc1        CAL-120  normalised viability      106
2  COCC[n+]1c2c(n(Cc3cnccn3)c1C)C(=O)c1ccccc1C2=O [YM155]        CAL-120  normalised viability     5.35
3  COc1cc(OC2CCN(C)CC2)ccc1Nc1ncc2c(n1)n(C1CCCC1)c(=O)n2C [AZ 3146]        CAL-120  normalised viability      121
4  Nc1cc(C(F)(F)F)c(-c2cc(N3CCOCC3)nc(N3CCOCC3)n2)cn1 [BKM-120]        CAL-120  normalised viability     81.3
5  COc1cc2/c(=N/c3ccc(Br)cc3F)nc[nH]c2cc1OCC1CCN(C)CC1 [Vandetanib]        CAL-120  normalised viability     98.3
6  CN(C)CCOc1ccc(/C(=C(/CCCl)c2ccccc2)c2ccccc2)cc1 [Toremifene]        CAL-120  normalised viability     93.7
7  CN(C)c1nc(N(C)C)nc(N(C)C)n1 [Altretamine]        CAL-120  normalised viability     95.5
8  C=C1C[C@@H]2[C@H](CC[C@]3(C)C(=O)CC[C@@H]23)[C@@]2(C)C=CC(=O)C=C12 [Exemestane]        CAL-120  normalised viability     92.7
